target.desc: HLA-A*0201 molecule on T2 cells (Homo sapiens, UniProt P04439, D140Y/D185E/D98H/E176V/E277Q/G131W/G231S/I119V/I121R/I166T/I218V/L300P/L318F/N151K/N90K/P208A/P217A/Q86G/Q94H/R138H/R169H/T345S)
measurement.description: Peptide-binding assay (HLA stabilization assay, T2 cell line)
Format: cell-based
condition.summary: T2 cells 2 × 10^5/well, 20 μg/mL peptide, serum-free RPMI, 20 hours, 37 °C; FACS, PE anti-HLA-A 02 (BB7.2); triplicate; FI more than 1 = strong binding; Fig. S2
value.type: fluorescence index (FI) value

Past entries and their recorded results:
| query.sequence | result |
| --- | --- |
| VLLEKATIL [P2] | above 2 |
| RLLEAFQFV [P7] | above 2 |
| TLDHLLVLL [P1] | above 2 |
| KVLTLFAEV [P5] | above 2 |

Query: Data request, read-out fluorescence index (FI) value, for LLLAEPFPV [P4]
Response: 1.81
